Cited source for all entries: patent US20130071393A1

- Assay System: T1, Activin A (UniProt P08476 311-426)
- T1 construct: also called ActA
- T1 sequence (looked up): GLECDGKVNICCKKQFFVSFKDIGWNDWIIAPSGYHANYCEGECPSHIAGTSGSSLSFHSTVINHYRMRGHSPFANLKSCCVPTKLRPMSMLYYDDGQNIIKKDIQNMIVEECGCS
- Experiment Summary: BiaCore; ligand coupled to the device, receptor-Fc flowed over

{"Binder": "Soluble ActRIIB-Fc D80A (Fc fusion, UniProt Q13705 19-119, looked up, T0019 variant; whole entry named; not shown: Fc domain) SGRGEAETRECIYYNANWELERTNQSGLERCEGEQDKRLHCYASWANSSGTIELVKKGCWLADFNCYDRQECVATEENPQVYFCCCEGNFCNERFTHLPEA", "binding result": "no binding"}
{"Binder": "Soluble ActRIIB-Fc D80F (Fc fusion, UniProt Q13705 19-119, looked up, T0019 variant; whole entry named; not shown: Fc domain) SGRGEAETRECIYYNANWELERTNQSGLERCEGEQDKRLHCYASWANSSGTIELVKKGCWLFDFNCYDRQECVATEENPQVYFCCCEGNFCNERFTHLPEA", "binding result": "no binding"}
